# System: PBL
# EXPERIMENT: Growth inhibition of resting human PBL after 72 hrs by MTT assay
# Format: cell-based
REPORTED_METRIC: GI50 (µM)
Supply the numeric figure in µM, leaving out any unit text.

compound_smiles=COC(=O)c1sc(-c2ccccc2)cc1Nc1cc(OC)c(OC)c(OC)c1 endpoint_unit=µM observed_value=45.7
compound_smiles=COC(=O)c1sc(-c2cccs2)cc1Nc1cc(OC)c(OC)c(OC)c1 endpoint_unit=µM observed_value=85.7

Read the next record carefully.
Test item COC(=O)c1sc(-c2ccc(C)cc2)cc1Nc1cc(OC)c(OC)c(OC)c1 ; PBL; reported GI50 was 31.7

----------
# System: HeLa
# EXPERIMENT: Antiproliferative activity against human HeLa cells after 4 days by Coulter counter method
# Type: functional, cell-based
# ASSAY_CONDITIONS: 96 h
Rule: IC50 below 0.8 µM gives 1.0, anything at or above gives 0.0.

compound_smiles=CCOC(=O)c1sc(-c2ccc(Cl)cc2)cc1Nc1cc(OC)c(OC)c(OC)c1 label_class=0.0
compound_smiles=COC(=O)c1sc(-c2ccc(Cl)c(Cl)c2)cc1Nc1cc(OC)c(OC)c(OC)c1 label_class=0.0
compound_smiles=COC(=O)c1sc(-c2ccc(OC)c(OC)c2)cc1Nc1cc(OC)c(OC)c(OC)c1 label_class=0.0
compound_smiles=CCOC(=O)c1sc(-c2ccccc2)cc1Nc1cc(OC)c(OC)c(OC)c1 label_class=0.0
compound_smiles=COC(=O)c1sc(-c2ccc(F)cc2)cc1Nc1cc(OC)c(OC)c(OC)c1 label_class=0.0

Query: A record lists COC(=O)c1sc(-c2ccc(Cl)cc2)cc1Nc1cc(OC)c(OC)c(OC)c1 . Is its IC50 below 0.8 µM?
Result: 0.0

----------
# Species: Bos taurus
# EXPERIMENT: Inhibition of [3H]colchicine binding to bovine brain tubulin at 5 uM relative to control
inhibition below 50% gives no (0); inhibition at or above it gives yes (1).

Observe how each entry below is paired with its result.
compound_smiles=COC(=O)c1sc(-c2ccc(C)cc2)cc1Nc1cc(OC)c(OC)c(OC)c1 label_class="yes (1)"
compound_smiles=COC(=O)c1sc(-c2cccs2)cc1Nc1cc(OC)c(OC)c(OC)c1 label_class="yes (1)"
compound_smiles=COC(=O)c1sc(-c2ccc(OC)cc2)cc1Nc1cc(OC)c(OC)c(OC)c1 label_class="no (0)"
compound_smiles=COC(=O)c1sc(-c2ccc(OC)c(OC)c2)cc1Nc1cc(OC)c(OC)c(OC)c1 label_class="no (0)"
compound_smiles=COC(=O)c1sc(-c2ccc(F)cc2)cc1Nc1cc(OC)c(OC)c(OC)c1 label_class="no (0)"

Consider the additional compound presented here.
Query: Hi team, for COC(=O)c1sc(-c2ccccc2)cc1Nc1cc(OC)c(OC)c(OC)c1 , is the recorded inhibition at or above 50%?
Result: yes (1)

----------
# System: HeLa
# EXPERIMENT: Antiproliferative activity against human HeLa cells after 4 days by Coulter counter method
# Assay type: functional, cell-based
# ASSAY_CONDITIONS: 96 h
REPORTED_METRIC: IC50 (nM)
Supply the numeric figure in nM, leaving out any unit text.

Check out these entries, answers already filled in.
compound=CCOC(=O)c1sc(-c2ccc(C)cc2)cc1Nc1cc(OC)c(OC)c(OC)c1 observed_value=780
compound=COC(=O)c1sc(-c2ccc([N+](=O)[O-])cc2)cc1Nc1cc(OC)c(OC)c(OC)c1 observed_value=1000
compound=COC(=O)c1sc(-c2cccs2)cc1Nc1cc(OC)c(OC)c(OC)c1 observed_value=160
compound=COC(=O)c1sc(-c2ccc(C(F)(F)F)cc2)cc1Nc1cc(OC)c(OC)c(OC)c1 observed_value=1300
compound=COC(=O)c1sc(-c2ccc(C)cc2)cc1Nc1cc(OC)c(OC)c(OC)c1 observed_value=260

Test item CCOC(=O)c1sc(-c2ccc(F)cc2)cc1Nc1cc(OC)c(OC)c(OC)c1 ; HeLa; reported IC50 was 2100

Test item COC(=O)c1sc(-c2ccc(OC)cc2)cc1Nc1cc(OC)c(OC)c(OC)c1 ; HeLa; reported IC50 was 840

Test item CCOc1ccc(-c2cc(Nc3cc(OC)c(OC)c(OC)c3)c(C(=O)OC)s2)cc1 ; HeLa; reported IC50 was 4400

Test item COC(=O)c1sc(-c2cc(OC)c(OC)c(OC)c2)cc1Nc1cc(OC)c(OC)c(OC)c1 ; HeLa; reported IC50 was 162000

Test item COC(=O)c1sc(-c2cccc(OC)c2)cc1Nc1cc(OC)c(OC)c(OC)c1 ; HeLa; reported IC50 was 800

Test item COc1ccc(/C=C\c2cc(OC)c(OC)c(OC)c2)cc1O [COMBRETASTATIN A4] ; HeLa; reported IC50 was 2

Test item COC(=O)c1sc(-c2ccccc2)cc1Nc1cc(OC)c(OC)c(OC)c1 ; HeLa; reported IC50 was 670

Test item CCOC(=O)c1sc(-c2ccc(OC)cc2)cc1Nc1cc(OC)c(OC)c(OC)c1 ; HeLa; reported IC50 was 2300
